Target: ABL1 E255K (Homo sapiens, UniProt P00519, E255K)
Sequence (P00519 whole entry E255K): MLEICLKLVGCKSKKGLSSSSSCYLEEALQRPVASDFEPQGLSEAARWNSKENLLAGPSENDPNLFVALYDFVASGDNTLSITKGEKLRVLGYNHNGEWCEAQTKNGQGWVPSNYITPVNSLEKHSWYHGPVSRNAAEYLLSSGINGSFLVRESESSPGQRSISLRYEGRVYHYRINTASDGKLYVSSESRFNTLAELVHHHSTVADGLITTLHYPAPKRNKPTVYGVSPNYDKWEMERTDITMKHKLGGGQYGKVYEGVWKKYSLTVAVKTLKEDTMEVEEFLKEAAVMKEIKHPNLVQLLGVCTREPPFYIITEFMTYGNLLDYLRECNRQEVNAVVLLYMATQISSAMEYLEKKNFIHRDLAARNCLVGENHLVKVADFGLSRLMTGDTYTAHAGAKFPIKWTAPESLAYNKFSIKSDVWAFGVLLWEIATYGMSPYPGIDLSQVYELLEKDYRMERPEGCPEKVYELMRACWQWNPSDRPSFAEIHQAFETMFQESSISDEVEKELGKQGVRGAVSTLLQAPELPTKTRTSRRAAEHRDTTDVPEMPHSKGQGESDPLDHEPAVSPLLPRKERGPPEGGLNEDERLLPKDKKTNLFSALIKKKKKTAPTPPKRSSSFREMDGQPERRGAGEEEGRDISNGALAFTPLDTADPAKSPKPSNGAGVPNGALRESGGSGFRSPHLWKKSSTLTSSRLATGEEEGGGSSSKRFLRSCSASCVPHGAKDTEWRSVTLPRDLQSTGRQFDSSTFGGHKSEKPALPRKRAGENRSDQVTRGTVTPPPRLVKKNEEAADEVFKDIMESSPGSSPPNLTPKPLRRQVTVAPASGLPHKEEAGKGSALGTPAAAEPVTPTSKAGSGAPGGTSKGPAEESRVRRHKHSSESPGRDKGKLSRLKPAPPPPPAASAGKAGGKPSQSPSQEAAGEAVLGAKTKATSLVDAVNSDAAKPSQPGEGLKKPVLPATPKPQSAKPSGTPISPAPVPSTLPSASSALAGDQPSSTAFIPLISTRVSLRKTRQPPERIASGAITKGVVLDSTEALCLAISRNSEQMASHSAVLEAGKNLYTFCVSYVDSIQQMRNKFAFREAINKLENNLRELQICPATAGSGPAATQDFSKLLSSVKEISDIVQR
Test: SelectScreen kinase specificity survey
Details: estimated, abridged dose response curve, read-out: Kinase inhibitory activity EC50
pEC50: −log10 of the molar value.
Form field: pEC50 (one value per entry).

compound: CN(C)CCCNc1ccc2ncn3c4ccc5[nH]ncc5c4c(=O)c1c23 [Compound (IV)]
relation.sign: =
pEC50: 5.43
//
compound: CCN(CC)CCNc1ccc2ncn3c4ccc(O)cc4c(=O)c1c23 [Symadex, reference compound]
relation.sign: <
pEC50: 5.30

----------
Target: STK22B (TSSK2) (Homo sapiens, UniProt Q96PF2)
Sequence (Q96PF2 whole entry): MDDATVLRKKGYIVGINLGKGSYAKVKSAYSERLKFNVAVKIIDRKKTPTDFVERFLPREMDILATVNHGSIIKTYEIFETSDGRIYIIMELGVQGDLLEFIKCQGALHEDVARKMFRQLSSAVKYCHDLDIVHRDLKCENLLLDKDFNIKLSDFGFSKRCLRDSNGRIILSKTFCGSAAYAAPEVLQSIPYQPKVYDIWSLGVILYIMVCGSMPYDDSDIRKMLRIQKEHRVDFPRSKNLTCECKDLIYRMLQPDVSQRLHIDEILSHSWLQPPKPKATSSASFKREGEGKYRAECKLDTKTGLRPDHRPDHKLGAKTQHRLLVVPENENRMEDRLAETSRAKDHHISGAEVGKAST
Experiment: SelectScreen kinase specificity survey
Conditions: estimated, abridged dose response curve, read-out: Kinase inhibitory activity EC50
Form field: EC50 (one value per entry).

compound: CN(C)CCCNc1ccc2ncn3c4ccc5[nH]ncc5c4c(=O)c1c23
target.of.assay: STK22B (TSSK2) (Homo sapiens, UniProt Q96PF2)
EC50: > 5 µM

compound: CCN(CC)CCNc1ccc2ncn3c4ccc(O)cc4c(=O)c1c23 [Symadex, reference compound]
target.of.assay: STK22B (TSSK2) (Homo sapiens, UniProt Q96PF2)
EC50: > 5 µM
